Data credit: patent US10077261B2

# SYSTEM UNDER TEST: hFASN enzyme (full length) (Homo sapiens)
# Construct: 10 μL hFASN enzyme (full length, 300 ng, purified in house); made in house
# Sequence (P49327 whole entry): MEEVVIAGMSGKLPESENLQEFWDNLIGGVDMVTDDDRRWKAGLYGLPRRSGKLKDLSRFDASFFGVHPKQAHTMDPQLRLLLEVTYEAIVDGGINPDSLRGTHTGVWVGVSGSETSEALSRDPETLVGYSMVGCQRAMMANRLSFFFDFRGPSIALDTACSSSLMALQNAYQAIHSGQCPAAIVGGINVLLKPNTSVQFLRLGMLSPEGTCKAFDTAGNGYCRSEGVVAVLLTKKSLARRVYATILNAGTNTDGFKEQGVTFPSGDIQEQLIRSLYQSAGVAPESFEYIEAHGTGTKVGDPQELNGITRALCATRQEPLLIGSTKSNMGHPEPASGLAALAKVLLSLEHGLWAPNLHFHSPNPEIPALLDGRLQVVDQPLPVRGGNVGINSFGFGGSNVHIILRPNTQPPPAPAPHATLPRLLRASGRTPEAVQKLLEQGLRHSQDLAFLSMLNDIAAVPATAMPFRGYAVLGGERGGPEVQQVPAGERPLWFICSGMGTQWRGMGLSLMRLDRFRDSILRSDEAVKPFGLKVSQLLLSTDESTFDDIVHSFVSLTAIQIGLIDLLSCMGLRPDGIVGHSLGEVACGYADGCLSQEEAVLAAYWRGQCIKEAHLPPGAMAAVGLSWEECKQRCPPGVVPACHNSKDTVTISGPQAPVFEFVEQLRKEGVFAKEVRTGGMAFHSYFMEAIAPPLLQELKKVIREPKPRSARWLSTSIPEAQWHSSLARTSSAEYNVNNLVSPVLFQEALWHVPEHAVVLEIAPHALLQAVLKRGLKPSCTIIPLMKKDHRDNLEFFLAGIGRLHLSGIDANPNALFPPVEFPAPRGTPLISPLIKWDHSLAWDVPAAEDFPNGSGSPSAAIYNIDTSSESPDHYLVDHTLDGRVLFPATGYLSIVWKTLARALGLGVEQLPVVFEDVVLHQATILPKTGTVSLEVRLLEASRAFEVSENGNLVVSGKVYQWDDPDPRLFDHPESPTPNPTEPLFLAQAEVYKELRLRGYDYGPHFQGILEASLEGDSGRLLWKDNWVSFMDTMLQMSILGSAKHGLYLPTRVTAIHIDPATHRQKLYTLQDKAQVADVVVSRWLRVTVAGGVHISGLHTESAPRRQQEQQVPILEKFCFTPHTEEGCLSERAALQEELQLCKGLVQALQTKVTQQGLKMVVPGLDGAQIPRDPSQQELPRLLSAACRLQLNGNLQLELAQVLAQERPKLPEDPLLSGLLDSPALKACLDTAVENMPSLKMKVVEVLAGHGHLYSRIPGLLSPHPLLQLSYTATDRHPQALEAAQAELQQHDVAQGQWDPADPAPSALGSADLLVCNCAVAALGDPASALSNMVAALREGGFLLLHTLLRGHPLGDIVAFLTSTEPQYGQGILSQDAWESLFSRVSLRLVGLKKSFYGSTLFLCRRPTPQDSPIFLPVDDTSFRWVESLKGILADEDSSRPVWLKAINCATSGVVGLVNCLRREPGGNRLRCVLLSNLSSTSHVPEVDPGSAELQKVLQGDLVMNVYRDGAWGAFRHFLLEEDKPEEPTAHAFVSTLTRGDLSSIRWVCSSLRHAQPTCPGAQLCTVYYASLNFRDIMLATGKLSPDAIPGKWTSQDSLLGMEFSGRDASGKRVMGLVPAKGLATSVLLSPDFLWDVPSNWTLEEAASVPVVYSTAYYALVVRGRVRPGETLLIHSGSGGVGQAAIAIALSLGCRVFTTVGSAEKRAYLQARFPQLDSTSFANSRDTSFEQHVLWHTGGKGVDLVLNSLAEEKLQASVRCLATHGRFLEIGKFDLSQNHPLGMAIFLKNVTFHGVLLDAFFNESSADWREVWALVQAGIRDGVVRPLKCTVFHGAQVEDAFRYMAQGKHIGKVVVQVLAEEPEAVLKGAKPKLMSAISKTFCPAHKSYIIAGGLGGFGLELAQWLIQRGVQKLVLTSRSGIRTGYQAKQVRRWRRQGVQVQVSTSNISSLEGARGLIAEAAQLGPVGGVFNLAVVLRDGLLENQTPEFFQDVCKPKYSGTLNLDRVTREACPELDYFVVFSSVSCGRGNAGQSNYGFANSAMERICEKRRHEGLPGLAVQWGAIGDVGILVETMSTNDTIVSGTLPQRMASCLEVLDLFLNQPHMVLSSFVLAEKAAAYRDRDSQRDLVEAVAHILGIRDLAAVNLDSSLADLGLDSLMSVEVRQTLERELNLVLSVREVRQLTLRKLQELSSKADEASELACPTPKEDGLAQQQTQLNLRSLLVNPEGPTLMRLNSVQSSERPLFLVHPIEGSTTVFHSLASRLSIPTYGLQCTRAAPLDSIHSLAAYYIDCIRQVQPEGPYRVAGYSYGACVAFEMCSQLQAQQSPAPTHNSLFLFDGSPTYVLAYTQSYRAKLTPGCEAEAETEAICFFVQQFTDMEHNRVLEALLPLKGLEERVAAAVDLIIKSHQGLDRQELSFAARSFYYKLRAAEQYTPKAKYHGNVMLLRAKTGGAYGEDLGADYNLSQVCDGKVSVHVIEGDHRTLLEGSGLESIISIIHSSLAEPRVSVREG
# PROTOCOL DETAILS: Fatty Acid Synthase (FASN) inhibition scintillation proximity assay
# Type: biochemical
# TEST PARAMETERS: read-out: Human FASN pIC50 (converted)
REPORTED METRIC: IC50 (µM)
Give bare numbers, in µM.

MOLECULE	SYSTEM UNDER TEST	UNIT ABBREV	IC50
CC(C)n1ncc2ccc(-c3ccc(C4=NC5(CC5)C(=O)N4CC4CN(C(=O)C5CC5)C4)cc3)cc21 [compound 550]	hFASN enzyme (full length) (Homo sapiens)	µM	1.82
Cn1ncc2ccc(-c3ccc(C4=NC5(CCCC5)C(=O)N4C[C@@H]4CCN(C(=O)C5CC5)C4)cc3)cc21 [compound 34]	hFASN enzyme (full length) (Homo sapiens)	µM	0.117
CCn1cc2cc(-c3ccc(C4=NC5(CC5)C(=O)N4CC4CN(C(=O)C5CC5)C4)cc3)ccc2n1 [compound 506]	hFASN enzyme (full length) (Homo sapiens)	µM	3.39

# per-item lookup of IC50; items listed below
1. O=C(C1CC1)N1CC[C@@H](CN2C(=O)C3(CC3)N=C2c2ccc(-c3ccc4[nH]c(CO)cc4c3)cc2)C1 [compound 216]
2. CC(O)C(=O)N1CC(CN2C(=O)C3(CCOC3)N=C2c2ccc(-c3ccc(-c4cnn(C)c4)cc3)cc2)C1 (stereo not shown) [compound 711]
3. CC(C)C(=O)N1CCC2(CC1)N=C(c1ccc(-c3ccc4cnccc4c3)cc1)N(C[C@@H]1CCN(C(=O)C3CC3)C1)C2=O [compound 143]
4. CC(C)N1CCC2(CC1)N=C(c1ccc(-c3ccc4[nH]ncc4c3)cc1)N(C[C@@H]1CCN(C(=O)C3CC3)C1)C2=O [compound 743]
5. CC(O)C(=O)N1CC[C@@H](CN2C(=O)C3(CCOCC3)N=C2c2ccc(-c3ccc4c(cnn4C)c3)cc2)C1 (stereo partly shown) [compound 673]
6. O=C(N1CCCC1)N1CC(CN2C(=O)C3(CCOCC3)N=C2c2ccc(-c3ccc4occc4c3)cc2)C1 [compound 705]
7. Cn1ncc2cc(-c3ccc(C4=NC5(CC5)C(=O)N4CC4CN(C(=O)C5CC5)C4)cc3F)ccc21 [compound 441]

[0.0288, 6.03, 0.0363, 0.708, 5.5, 2.69, 3.98]
